Data origin, for the record: patent EP4813980A1

Test system: vCap cells
protocol.notes: Cell growth inhibition, CellTiter-Glo, 72 h
Format: cell-based
experimental.parameters: Homo sapiens, 72 h culture, mean of N=2
pIC50: −log10 of the molar value.
Consider the following molecules and their measured pIC50 readings.
measured.metric: pIC50

molecule=C=CS(=O)(=O)N[C@H]1CC[C@@H](n2nc(N3CCCc4cc(-c5cnn(C)c5)c(C(F)F)cc43)c3c2CCN(C(C)=O)C3)CC1 study_target="vCap cells" endpoint_value=8.70
molecule="CC(=O)N1Cc2cc(C3CCN(Cc4ccc(COc5cccc6c5CN(C5CCC(=O)N(COC(=O)CN)C5=O)C6=O)cc4)CC3)cc(N3CCCc4cc(-c5cnn(C)c5)c(C(F)F)cc43)c2C1 (stereo not drawn)" study_target="vCap cells" endpoint_value=9.46
molecule=C=CS(=O)(=O)N[C@H]1CC[C@@H](c2cc3c(c(N4CCCc5cc(-c6cnn(C)c6)c(C(F)F)cc54)c2)CN(C(C)=O)C3)CC1 study_target="vCap cells" endpoint_value=7.92

###

System: vCap cells
protocol.notes: Cell growth inhibition, CellTiter-Glo, 72 h
Type: cell-based
experimental.parameters: Homo sapiens, 72 h culture, mean of N=2
Consider the following molecules and their measured IC50 readings.
measured.metric: IC50 (nM)

molecule="CC(=O)n1cc2cc(C3CCN(C(=O)CN4CCC(C#Cc5cccc6c5n(C)c(=O)n6C5CCC(=O)NC5=O)CC4)CC3)cc(N3CCCc4cc(-c5cnn(C)c5)c(C(F)F)cc43)c2c1 (centres unmarked) [Compound 2048]" endpoint_value=1.85
molecule="CNC(=O)N1CCc2cc(C3CCN(Cc4ccc(CCOc5cccc6c5CN(C5CCC(=O)NC5=O)C6=O)cc4)CC3)cc(N3CCCc4cc(-c5cnn(C)c5)c(C(F)F)cc43)c2C1 (centres unmarked) [Compound 2012]" endpoint_value=2.31
molecule="CC(=O)N1Cc2cc(C3CCN(CC4CCN(CCCc5cccc6c5C(=O)N(C5CCC(=O)NC5=O)C6=O)CC4)CC3)cc(N3CCCc4cc(-c5cnn(C)c5)c(C(F)F)cc43)c2C1 (centres unmarked) [Compound 2020]" endpoint_value=0.53
molecule="CC(=O)N1Cc2cc(C3CCN(CC4CCN(c5ccc6c(c5)n(C)c(=O)n6C5CCC(=O)NC5=O)CC4)CC3)cc(N3CCCc4cc(-c5cnn(C)c5)c(C(F)F)cc43)c2C1 (centres unmarked) [Compound 2068]" endpoint_value=0.07
molecule="C=CS(=O)(=O)N[C@H]1CC[C@@H](n2nc(N3CCCc4cc(-c5cnn(C)c5)c(C(F)F)cc43)c3c2CCN(C(=O)NC)C3)CC1 [Compound 1375]" endpoint_value=2

###

A short record of pIC50 observed with BRD4 (Homo sapiens, UniProt O60885) follows.
pIC50: −log10 of the molar value.
measured.metric: pIC50

compound="CO[C@H]1CC[C@H](n2c([C@@H]3CCCC(=O)N3c3ccc(F)c(F)c3)nc3cc(-c4c(C)noc4C)ccc32)CC1 [CCS1477]" measured_metric=pIC50 sign== endpoint_value=5.14
compound="C=CS(=O)(=O)N1CCC(c2cc3c(c(N4CCCc5cc(-c6cnn(C)c6)c(C(F)F)cc54)c2)CN(C(C)=O)C3)CC1 [Compound 1344]" measured_metric=pIC50 sign== endpoint_value=5.10
compound="C=CS(=O)(=O)N1CCC(c2cc3c(c(N4CCCc5cc(-c6cnn(C)c6)c(C(F)F)cc54)c2)CN(C(=O)NC)CC3)CC1 [Compound 1347]" measured_metric=pIC50 sign=< endpoint_value=5.00
compound="C=CS(=O)(=O)N[C@H]1CC[C@@H](c2cc3c(c(N4CCCc5cc(-c6cnn(C)c6)c(C(F)F)cc54)c2)CN(C(C)=O)C3)CC1 [Compound 1345]" measured_metric=pIC50 sign=< endpoint_value=5.00
compound="C=CS(=O)(=O)N[C@H]1CC[C@H](c2cc3c(c(N4CCCc5cc(-c6cnn(C)c6)c(C(F)F)cc54)c2)CN(C(C)=O)C3)CC1 [Compound 1343]" measured_metric=pIC50 sign== endpoint_value=5.10

###

Consider the following molecules and their measured IC50 readings.
Test system: vCap cells
protocol.notes: Cell growth inhibition, CellTiter-Glo, 72 h
Type: cell-based
experimental.parameters: Homo sapiens, 72 h culture, mean of N=2
Method: 22RV1, vCap, MM1S and OPM-2 cells were cultured in RPMI-1640 medium (10% fetal bovine serum and 100 units of penicillin/streptomycin dual-antibody per mL were added to RPMI-1640) in a cell incubator at 37°C with 5% CO2, respectively. Cells in logarithmic growth phase were seeded into 96-well cell culture plates at 5×10^3 cells/100 µL/well and cultured overnight. […] Fluorescence signal values were read with a microplate reader. Data were analyzed and graphs were generated using Prism 7.0. […]
measured.metric: IC50

molecule="CNC(=O)N1CCc2c(c(N3CCCc4cc(-c5cnn(C)c5)c(C(F)F)cc43)nn2[C@H]2CC[C@H](N3C(=O)C=CC3=O)CC2)C1 [Compound 1383]" study_target="vCap cells" measured_metric=IC50 endpoint_value="108 nM"
molecule="C=CS(=O)(=O)N1CCC(n2nc(N3CCCc4cc(-c5cnn(C)c5)c(C5CC5)cc43)c3c2CCN(C(=O)NC)C3)CC1 [Compound 1378]" study_target="vCap cells" measured_metric=IC50 endpoint_value="3 nM"
molecule="CC(=O)N1Cc2cc(C3CCN(CCc4ccc(COc5cccc6c5CN(C5CCC(=O)NC5=O)C6=O)cc4)CC3)cc(N3CCCc4cc(-c5cnn(C)c5)c(C(F)F)cc43)c2C1 (stereo not drawn) [Compound 2031]" study_target="vCap cells" measured_metric=IC50 endpoint_value="0.21 nM"
molecule="C=CS(=O)(=O)N1CCC(n2c([C@@H]3CCCC(=O)N3c3ccc(F)c(F)c3)nc3cc(-c4c(C)noc4C)ccc32)CC1 [Compound 1373]" study_target="vCap cells" measured_metric=IC50 endpoint_value="51 nM"
molecule="C=CS(=O)(=O)N[C@H]1CC[C@H](n2nc(N3CCCc4cc(-c5cnn(C)c5)c(C(F)F)cc43)c3c2CCN(C(C)=O)C3)CC1 [Compound 1387]" study_target="vCap cells" measured_metric=IC50 endpoint_value="3 nM"
molecule="CC(=O)n1cc2cc(C3CCN(C(=O)CCCCCCCNc4ccc5c(c4)n(C)c(=O)n5C4CCC(=O)NC4=O)CC3)cc(N3CCCc4cc(-c5cnn(C)c5)c(C(F)F)cc43)c2c1 (stereo not drawn) [Compound 2004]" study_target="vCap cells" measured_metric=IC50 endpoint_value="0.12 nM"
molecule="CNC(=O)N1CCc2cc(C3CCN(C(=O)CCCCCCCNc4ccc5c(c4)n(C)c(=O)n5C4CCC(=O)NC4=O)CC3)cc(N3CCCc4cc(-c5cnn(C)c5)c(C(F)F)cc43)c2C1 (stereo not drawn) [Compound 2013]" study_target="vCap cells" measured_metric=IC50 endpoint_value="0.449 nM"
molecule="CC(=O)N1Cc2cc(C3CCN(CCN4CCC(COc5cccc6c5CN(C5CCC(=O)NC5=O)C6=O)CC4)CC3)cc(N3CCCc4cc(-c5cnn(C)c5)c(C(F)F)cc43)c2C1 (stereo not drawn) [Compound 2055]" study_target="vCap cells" measured_metric=IC50 endpoint_value="0.26 nM"
molecule="CC(=O)N1Cc2cc(C3CCN(C(=O)CCCCCCCCNc4ccc5c(c4)n(C)c(=O)n5C4CCC(=O)NC4=O)CC3)cc(N3CCCc4cc(-c5cnn(C)c5)c(C(F)F)cc43)c2C1 (stereo not drawn) [Compound 2009]" study_target="vCap cells" measured_metric=IC50 endpoint_value="0.01 nM"
molecule="C=CS(=O)(=O)N[C@H]1CC[C@@H](c2cc3c(c(N4CCCc5cc(-c6cnn(C)c6)c(C(F)F)cc54)c2)CN(C(=O)NC)CC3)CC1 [Compound 1366]" study_target="vCap cells" measured_metric=IC50 endpoint_value="28 nM"
molecule="CC(=O)N1Cc2cc(C3CCN(CC4CCN(c5ccc6c(c5)CN(C5CCC(=O)NC5=O)C6=O)CC4)CC3)cc(N3CCCc4cc(-c5cnn(C)c5)c(C(F)F)cc43)c2C1 (stereo not drawn) [Compound 2058]" study_target="vCap cells" measured_metric=IC50 endpoint_value="0.29 nM"
molecule="C=CS(=O)(=O)N1CCC(n2nc(N3CCCc4cc(-c5cnn(C)c5)c(C#N)cc43)c3c2CCN(C(=O)NC)C3)CC1 [Compound 1379]" study_target="vCap cells" measured_metric=IC50 endpoint_value="8 nM"
molecule="CC(=O)N1Cc2cc(C3CCN(Cc4ccc(COc5cccc6c5CN(C5CCC(=O)NC5=O)C6=O)cc4)CC3)cc(N3CCCc4cc(-c5cnn(C)c5)c(C(F)F)cc43)c2C1 (stereo not drawn) [Compound 2006]" study_target="vCap cells" measured_metric=IC50 endpoint_value="0.4 nM"
molecule="CC(=O)N1Cc2cc(C3CCN(Cc4ccc(COc5cccc6c5CN(C5CCC(=O)N(CO)C5=O)C6=O)cc4)CC3)cc(N3CCCc4cc(-c5cnn(C)c5)c(C(F)F)cc43)c2C1 (stereo not drawn) [Compound 2053]" study_target="vCap cells" measured_metric=IC50 endpoint_value="0.36 nM"
molecule="CC(=O)N1Cc2cc(C3CCN(CCN4CCC(CNc5cccc6c5C(=O)N(C5CCC(=O)NC5=O)C6=O)CC4)CC3)cc(N3CCCc4cc(-c5cnn(C)c5)c(C(F)F)cc43)c2C1 (stereo not drawn) [Compound 2019]" study_target="vCap cells" measured_metric=IC50 endpoint_value="1.25 nM"
molecule="CNC(=O)N1CCc2cc(C3CCN(Cc4ccc(COc5cccc6c5CN(C5CCC(=O)NC5=O)C6=O)cc4)CC3)cc(N3CCCc4cc(-c5cnn(C)c5)c(C(F)F)cc43)c2C1 (stereo not drawn) [Compound 2015]" study_target="vCap cells" measured_metric=IC50 endpoint_value="0.01 nM"
molecule="CC(=O)N1Cc2cc(C3CCN(CC4CCN(CCOc5cccc6c5CN(C5CCC(=O)NC5=O)C6=O)CC4)CC3)cc(N3CCCc4cc(-c5cnn(C)c5)c(C(F)F)cc43)c2C1 (stereo not drawn) [Compound 2054]" study_target="vCap cells" measured_metric=IC50 endpoint_value="0.26 nM"
molecule="CNC(=O)N1CCc2cc(C3CCN(C(=O)CCCCCCCCNc4ccc5c(c4)n(C)c(=O)n5C4CCC(=O)NC4=O)CC3)cc(N3CCCc4cc(-c5cnn(C)c5)c(C(F)F)cc43)c2C1 (stereo not drawn) [Compound 2018]" study_target="vCap cells" measured_metric=IC50 endpoint_value="< 0.005 nM"
molecule="CNC(=O)N1CCc2cc(C3CCN(CCN4CCC(CNc5cccc6c5C(=O)N(C5CCC(=O)NC5=O)C6=O)CC4)CC3)cc(N3CCCc4cc(-c5cnn(C)c5)c(C(F)F)cc43)c2C1 (stereo not drawn) [Compound 2021]" study_target="vCap cells" measured_metric=IC50 endpoint_value="0.545 nM"
molecule="CC(=O)N1Cc2cc(C3CCN(C(=O)CCCCCCNc4ccc5c(c4)n(C)c(=O)n5C4CCC(=O)NC4=O)CC3)cc(N3CCCc4cc(-c5cnn(C)c5)c(C(F)F)cc43)c2C1 (stereo not drawn) [Compound 2027]" study_target="vCap cells" measured_metric=IC50 endpoint_value="0.01 nM"
molecule="CC(=O)N1Cc2cc(C3CCN(c4cccc5c4CN(C4CCC(=O)NC4=O)C5=O)CC3)cc(N3CCCc4cc(-c5cnn(C)c5)c(C(F)F)cc43)c2C1 (stereo not drawn) [Compound 2080]" study_target="vCap cells" measured_metric=IC50 endpoint_value="1.17 nM"
